ASSAY NAME: adipocyte viability effects, profiling panel, cell-based, 3T3-L1 adipocytes, calcein-AM fluorescence, 48 h, basal (AID 1163); also: test concentration not given here
TEST PARAMETERS: 3T3-L1 adipocytes viability, higher = more signal
The entries below come with measured z-score values attached.
Answer using only a numeral; do not append any unit.

Use these answered entries as a reference point.
| COMPOUND | DATA VALUE |
| --- | --- |
| CC(C)(C)N1C(=O)[C@H]2[C@H]3[C@H](O)[C@H](O)CC(=NOC[C@@H](O)COCc4ccco4)[C@@H]3CC[C@H]2C1=O | 0.935 |
| CO[C@H]1COC(=O)CCC[C@H](C)[C@@H](OC)COC(=O)CC=C[C@@H]1C | 0.751 |
| C[C@@H]1CC[C@H]2C(=O)O[C@@H](COc3ccc(C(C)(C)C)cc3)CN2[C@H]1c1ccc(Br)cc1 | -0.076 |

Field: next compound
z-score for CC(=O)OC[C@H]1O[C@H](CC=NO[C@@H](C)c2cc(-c3c(C)cc(C)cc3C)no2)C=C[C@@H]1OC(C)=O ?
0.318

====

ASSAY NAME: basal MM1S mitochondrial membrane potential changes, profiling panel, cell-based, JC-1 fluorescence, 24 h, 100 nL compound (AID 1170); also: test concentration not given here
TEST PARAMETERS: higher = more signal
The entries below come with measured z-score values attached.
Answer using only a numeral; do not append any unit.

Use these answered entries as a reference point.
| COMPOUND | DATA VALUE |
| --- | --- |
| CC(C)[C@@H](OCc1ccccc1)[C@H](C)C=NO[C@H](C)c1cn([C@@H]2COC[C@H]2O)nn1 | -0.601 |
| COc1cccc([C@H](O)Cn2cc(-c3ccc(CON=C(C)C)cc3)nn2)c1 | -0.544 |
| COc1ccc2c(c1)O[C@@H](c1cccc(C(F)(F)F)c1)[C@H](O)C2=O | -0.724 |

z-score for CCN1C(=O)[C@H]2[C@H]3[C@H](O)[C@H](O)CC(=NO[C@@H]4O[C@H](CO)[C@@H](O)[C@H](O)[C@H]4O)[C@H]3CC[C@H]2C1=O ?
0.652

z-score for CC(=O)OC[C@H]1O[C@H](CCON=C(C)C)C=C[C@@H]1OC(C)=O ?
-0.57

z-score for CCc1cc2c(nc1CC)CCN(CCC(C)=NOC(C)CN1CCCCc3nc(C)c(C)cc31)C2 (stereo unspecified) ?
-0.104

z-score for CO[C@@H]1[C@H](O)CO[C@H]1C=Cc1ccccc1 ?
0.859

z-score for CCOC(=O)[C@H](CC(C)C)NC(=O)CCC1CC(OC(=O)NCc2ccc3c(c2)OCO3)CC2(CCCC(COC(=O)NCCc3ccc(Cl)cc3)O2)O1 (stereo partly specified) ?
-0.238

z-score for CC=CC1=C(CO)[C@H](O)[C@H]2O[C@H]2[C@@H]1O ?
-0.244

====

System: Wnt5a (protein binding on small-molecule microarray)
ASSAY NAME: Wnt5a binders on small-molecule microarray, primary screen, biophysical, 635/667 nm fluorescence (AID 1142);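 also: fluorescence read at 667 nm with signal to noise per printed feature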
TEST PARAMETERS: 635 nm fluorescence, higher = more signal
The entries below come with measured composite z-score values attached.

Use these answered entries as a reference point.
| COMPOUND | composite z-score |
| --- | --- |
| CC1(C)O[C@H]2OC([C@H](O)CON3C(=O)c4ccccc4C3=O)[C@H](O)[C@H]2O1 (stereo partly specified) | -0.0105 |
| O=C1[C@H]2[C@H]3[C@H](O)[C@H](O)CC(=NO[C@@H]4O[C@H](CO)[C@@H](O)[C@H](O)[C@H]4O)[C@@H]3CC[C@H]2C(=O)N1c1cccc(Oc2ccccc2)c1 | 0.0469 |
| CC(C)=CCCC(C)=CCON=C1[C@H]2CCn3c(=O)n(-c4ccccc4)c(=O)n3[C@H]2[C@H](O)[C@@H]2O[C@H]12 | 0.0694 |

composite z-score for CCN1C(=O)[C@H]2[C@H]3[C@H](O)[C@H](O)CC(=NOCC[C@@H]4C=C[C@H](OC(C)=O)[C@@H](COC(C)=O)O4)[C@@H]3CC[C@H]2C1=O ?
0.0885

composite z-score for CC(=O)OC[C@H]1O[C@H](CCON=C(C)CCN2CCCc3nc(C)c(C)cc32)C=C[C@@H]1OC(C)=O ?
0.166

composite z-score for CC(=O)OC[C@H]1O[C@@H](ON=C2[C@H]3CCn4c(=O)n(-c5ccccc5)c(=O)n4[C@H]3[C@H](O)[C@@H]3O[C@H]23)[C@H](OC(C)=O)[C@@H](OC(C)=O)[C@@H]1OC(C)=O ?
0.196

The values you see were collected from PubChem BioAssay.
